The values you see were collected from PubChem BioAssay (NCI).

Tested on: MALME-3M melanoma
Test: NCI tumour cell line growth inhibition, 48 h
Where a SMILES comes first, the peptide text is derived from it. [ ]: non-standard residue; d: D form. The star is where a group is joined. ξ: configuration not given here. X37 = O=C(OCc1ccccc1)[C@@H]1CCC[C@H]1N*; Fmoc = O=C(OCC1c2ccccc2-c2ccccc21)*; ξW = NC(Cc1c[nH]c2ccccc12)C(=O)O; ξF = NC(Cc1ccccc1)C(=O)O; Boc = CC(C)(C)OC(=O)*; ξK = NCCCCC(N)C(=O)O; ξT = CC(O)C(N)C(=O)O; tBu = CC(C)(C)*
The compounds listed here are annotated with their TGI.

Fill in: MALME-3M melanoma TGI for CC(OC(C)(C)C)C(NC(=O)C(CCCCNC(=O)OC(C)(C)C)NC(=O)C(Cc1c[nH]c2ccccc12)NC(=O)C(Cc1ccccc1)NC(=O)OCC1c2ccccc2-c2ccccc21)C(=O)NC(Cc1ccccc1)C(=O)N[C@@H]1CCC[C@H]1C(=O)OCc1ccccc1 (some centres not stated) (Fmoc-[ξF][ξW][ξK](Boc)[ξT](tBu)[ξF]-X37) = > 100 µM

Fill in: MALME-3M melanoma TGI for "CC(C)=NN/C(=N\S(=O)(=O)c1cc(Cl)c(Oc2ccc([N+](=O)[O-])cc2Cl)c(Cl)c1)Nc1ccc(Cl)cc1" = > 100 µM

Fill in: MALME-3M melanoma TGI for "CCCCCCc1cc(C=O)sc1-c1ccc(-c2sc(-c3ccc(-c4ccc(-c5cc(CCCCCC)c(-c6ccc(-c7sc(C=O)cc7CCCCCC)s6)s5)s4)s3)cc2CCCCCC)s1" = > 100 µM

Fill in: MALME-3M melanoma TGI for "O=C(Nc1ccccc1Cl)c1ccc(NC2=C(Cl)C(=O)N(Cc3ccccc3)C2=O)cc1" = > 100 µM

Fill in: MALME-3M melanoma TGI for Cc1cccc(C)c1NC(=O)C(=O)C1C(=O)N(c2ccccc2)N=C1N (configuration not stated) = > 100 µM

Fill in: MALME-3M melanoma TGI for CC(CN(CP(=O)([O-])[O-])CP(=O)([O-])[O-])N(CP(=O)([O-])[O-])CP(=O)([O-])[O-].N[C@@H]1CCCC[C@@H]1N.[Pt+2] (configuration not stated) = > 100 µM

Fill in: MALME-3M melanoma TGI for S=C1c2cc(Cl)ccc2NC(=NC2CCCC2)C2CSCN12 (configuration not stated) = > 100 µM
